- Target: fibrinogen (Bos taurus, UniProt P02672+P02676+P12799)
- Assay summary: SPR adsorption of fibrinogen to SAMs / grafted polymer films
- Assay type: binding, bovine
- Assay conditions: mixed SAM —CONRR′/—CO2H; 1 mg/mL fibrinogen flowed 30 min
Where a SMILES comes first, the peptide text is derived from it. [ ]: non-standard residue; d: D form. Sar = CNCC(=O)O
# reported % MLfib 30 min; entries follow
Express it in %; write the number only.

Record request: % MLfib 30 min value, item CNCCN(C)C
40

Record request: % MLfib 30 min value, item OCCOCCN1CCNCC1
3.7

Record request: % MLfib 30 min value, item Nc1ccc(O[C@@H]2O[C@H](CO)[C@@H](O[C@@H]3O[C@H](CO)[C@H](O)[C@H](O)[C@H]3O)[C@H](O)[C@H]2O)cc1
32

Record request: % MLfib 30 min value, item CC(=O)CCN
74

Record request: % MLfib 30 min value, item CN(C)C(=O)CNC(=O)CNC(=O)CN [H2N(Gly)3N(CH3)2] (H-Gly-Gly-Gly-NMe2)
22

Record request: % MLfib 30 min value, item CNC[C@H](OC)[C@H](OC)[C@H](OC)[C@H](COC)OC
2.9

Record request: % MLfib 30 min value, item CC(=O)NCCN
40

Record request: % MLfib 30 min value, item Nc1ccc(O[C@@H]2O[C@H](CO)[C@@H](O)[C@H](O)[C@H]2O)cc1
67

Record request: % MLfib 30 min value, item NC(CCCO)(CCCO)CCCO
57

Record request: % MLfib 30 min value, item C[N+](C)(C)CCN.[Cl-]
25

Record request: % MLfib 30 min value, item CNCC(=O)N(C)CC(=O)N(C)CC(=O)N(C)CC(=O)N(C)C [H(CH3)N(Sar)4N(CH3)2] (H-[Sar][Sar][Sar][Sar]-NMe2)
1.7

Record request: % MLfib 30 min value, item CNCC(=O)N(C)CC(=O)N(C)CC(=O)N(C)CC(=O)N(C)CC(=O)N(C)C [H(CH3)N(Sar)5N(CH3)2]
1.3

====

# reported dR/dton fibrinogen (maximum initial rate of adsorption); entries follow
- Target: fibrinogen (Bos taurus, UniProt P02672+P02676+P12799)
- Sequence (P02672 20-615): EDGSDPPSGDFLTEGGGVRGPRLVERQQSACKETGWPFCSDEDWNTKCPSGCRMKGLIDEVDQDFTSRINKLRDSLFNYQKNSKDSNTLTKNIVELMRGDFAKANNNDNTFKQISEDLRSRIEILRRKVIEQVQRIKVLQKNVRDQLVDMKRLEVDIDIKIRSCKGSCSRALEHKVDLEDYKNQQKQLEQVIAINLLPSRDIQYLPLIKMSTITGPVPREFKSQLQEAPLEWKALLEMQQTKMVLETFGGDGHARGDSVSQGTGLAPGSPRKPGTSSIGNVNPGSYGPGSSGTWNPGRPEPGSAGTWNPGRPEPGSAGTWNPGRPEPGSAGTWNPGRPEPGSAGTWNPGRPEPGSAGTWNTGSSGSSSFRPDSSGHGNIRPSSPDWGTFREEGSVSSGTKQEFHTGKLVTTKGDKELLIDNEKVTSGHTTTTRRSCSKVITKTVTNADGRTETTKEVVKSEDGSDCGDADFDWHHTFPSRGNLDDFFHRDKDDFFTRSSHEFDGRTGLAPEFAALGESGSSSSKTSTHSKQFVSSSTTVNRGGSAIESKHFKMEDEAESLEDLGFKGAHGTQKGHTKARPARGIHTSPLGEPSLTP
- Sequence (P02676 1-468): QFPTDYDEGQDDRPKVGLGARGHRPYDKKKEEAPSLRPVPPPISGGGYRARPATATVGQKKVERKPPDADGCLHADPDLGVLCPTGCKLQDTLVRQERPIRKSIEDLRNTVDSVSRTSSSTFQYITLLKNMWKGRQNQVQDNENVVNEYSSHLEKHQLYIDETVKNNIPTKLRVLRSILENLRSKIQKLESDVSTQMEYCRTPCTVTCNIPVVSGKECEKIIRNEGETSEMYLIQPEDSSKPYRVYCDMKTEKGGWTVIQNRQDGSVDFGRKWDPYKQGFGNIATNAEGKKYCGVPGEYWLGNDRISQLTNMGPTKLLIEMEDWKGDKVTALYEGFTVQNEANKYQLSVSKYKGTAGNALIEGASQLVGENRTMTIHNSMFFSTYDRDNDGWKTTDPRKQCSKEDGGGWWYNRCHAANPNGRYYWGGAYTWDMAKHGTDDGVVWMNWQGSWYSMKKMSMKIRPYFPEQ
- Sequence (P12799 25-444): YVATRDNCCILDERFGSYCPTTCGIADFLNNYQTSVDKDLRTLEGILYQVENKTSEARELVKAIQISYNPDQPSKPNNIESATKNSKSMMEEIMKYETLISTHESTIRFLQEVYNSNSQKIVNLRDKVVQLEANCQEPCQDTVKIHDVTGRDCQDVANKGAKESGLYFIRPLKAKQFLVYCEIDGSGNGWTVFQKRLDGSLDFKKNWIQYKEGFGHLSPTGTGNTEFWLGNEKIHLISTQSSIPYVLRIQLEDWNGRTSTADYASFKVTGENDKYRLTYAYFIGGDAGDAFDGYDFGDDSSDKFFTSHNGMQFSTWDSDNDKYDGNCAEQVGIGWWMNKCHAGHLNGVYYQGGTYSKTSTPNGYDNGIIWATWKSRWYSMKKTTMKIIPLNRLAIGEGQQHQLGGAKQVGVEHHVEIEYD
- Assay summary: SPR adsorption of fibrinogen to SAMs / grafted polymer films
- Format: binding, bovine
- Assay conditions: mixed SAM —CONRR′/—CO2H
Express it in RU/sec; write the number only.

[[record]]
molecule = "CC(=O)CCN"
reported_measurement = 1400

[[record]]
molecule = "N[C@H]1C(O)O[C@H](CO)[C@@H](O)[C@@H]1O (some centres unmarked)"
reported_measurement = 210

[[record]]
molecule = "Nc1ccc(O[C@@H]2O[C@H](CO)[C@@H](O)[C@H](O)[C@H]2O)cc1"
reported_measurement = 1200

[[record]]
molecule = "CNCCNC"
reported_measurement = 77


// next entry
Record request: dR/dton fibrinogen (maximum initial rate of adsorption) value, item CC(=O)N1CCNCC1
120

====

- Target: fibrinogen (Bos taurus, UniProt P02672+P02676+P12799)
- Assay summary: SPR adsorption of fibrinogen to SAMs / grafted polymer films
- Type: binding, bovine
- Assay conditions: fibrinogen; single-component SAMs (a) and mixed SAMs (b)
Assay endpoint: % ML 30 min
Answer format: number, then unit.

Record excerpt, results attached:
[[record]]
molecule = "CC(=O)N1CCNCC1"
reported_measurement = "38 ±0.2%"

[[record]]
molecule = "CN(CCN(C)P(=O)(N(C)C)N(C)C)C(=O)CCCCCCCCCCS"
reported_measurement = "37 ±2%"


Record request: % ML 30 min value, item CNC[C@H](OC)[C@H](OC)[C@H](OC)[C@H](COC)OC
2.9 ±1.4%

Record request: % ML 30 min value, item OCCOCCOCCOCCCCCCCCCCCS [Entry 3a, HOEG3(CH2)11SH, reference compound]
0.2%

Record request: % ML 30 min value, item COC[C@H](OC)[C@H](OC)[C@H](OC)[C@@H](CN(C)C(=O)CCCCCCCCCCS)OC
0.7 ±0.1%

====

- Target: fibrinogen (Bos taurus, UniProt P02672+P02676+P12799)
- Assay summary: SPR adsorption of fibrinogen to SAMs / grafted polymer films
- Type: binding, bovine
- Assay conditions: fibrinogen; single-component SAMs (a) and mixed SAMs (b)
Where a SMILES comes first, the peptide text is derived from it. [ ]: non-standard residue; d: D form. Sar = CNCC(=O)O
# reported % ML 30 min; entries follow
Express it in %; write the number only.

[[record]]
compound = "CC(=O)N1CCN(C(=O)CCCCCCCCCCCCCCCS)CC1"
target = "fibrinogen (Bos taurus, UniProt P02672+P02676+P12799)"
reported_measurement = 2.2


Record request: % ML 30 min value, item CNCC(=O)N(C)CC(=O)N(C)CC(=O)N(C)C [H(CH3)N(Sar)3N(CH3)2] (H-[Sar]-[Sar]-[Sar]-NMe2)
2.0

Record request: % ML 30 min value, item NCCOCCOCCO [Entry 3b, H(OCH2CH2)3NH2, reference compound]
2

====

- Target: lysozyme (Gallus gallus, UniProt P00698)
- Sequence (P00698 19-147): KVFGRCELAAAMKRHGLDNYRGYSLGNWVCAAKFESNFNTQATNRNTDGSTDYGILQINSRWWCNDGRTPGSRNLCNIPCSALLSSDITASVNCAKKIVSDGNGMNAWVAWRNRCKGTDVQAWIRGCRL
- Assay summary: SPR adsorption of lysozyme to SAMs / grafted polymer films
- Format: binding
- Assay conditions: mixed SAM —CONRR′/—CO2H
Where a SMILES comes first, the peptide text is derived from it. [ ]: non-standard residue; d: D form. Sar = CNCC(=O)O
Assay endpoint: dR/dton lysozyme (maximum initial rate of adsorption)

[[record]]
compound = "Nc1ccc(O[C@@H]2O[C@H](CO)[C@@H](O[C@@H]3O[C@H](CO)[C@H](O)[C@H](O)[C@H]3O)[C@H](O)[C@H]2O)cc1"
reported_measurement = "290 ± 120 RU/sec"

[[record]]
compound = "CNCC(=O)N(C)C"
reported_measurement = "290 ± 130 RU/sec"

[[record]]
compound = "N[C@H]1C(O)O[C@H](CO)[C@@H](O)[C@@H]1O (some centres unmarked)"
reported_measurement = "620 ± 280 RU/sec"

[[record]]
compound = "CNCC(=O)N(C)CC(=O)N(C)CC(=O)N(C)C [H(CH3)N(Sar)3N(CH3)2] (H-[Sar]-[Sar]-[Sar]-NMe2)"
reported_measurement = "70 ± 30 RU/sec"


// next entry
Record request: dR/dton lysozyme (maximum initial rate of adsorption) value, item CNCCN(C)C(=O)OC
670 ± 50 RU/sec
